System: S. pneumoniae ATCC 700676
Protocol description: microdilution assay MIC, S. pneumoniae ATCC 700676
Type: cell-based, Streptococcus pneumoniae
Condition: S. pneumoniae ATCC 700676, erythromycin A resistant strain; average where multiple assays
Exercise: state measured log10 MIC for each of the compounds provided.
Lab note - MIC converted to log10 from values in µg/mL.

COC1(C)CC(C)C(=O)C(C)C2NC(=O)OC2(C)C(CCN2CCCCC2)OC(=O)C(C)C(=O)C(C)C1OC1OC(C)CC(N(C)C)C1O (centres unmarked) yielded log10 MIC of -0.11

COC1(C)CC(C)C(=O)C(C)C2NC(=O)OC2(C)C(CCNS(=O)(=O)c2cccc(-c3ccco3)c2)OC(=O)C(C)C(=O)C(C)C1OC1OC(C)CC(N(C)C)C1O (centres unmarked) yielded log10 MIC of -1.60

COC1(C)CC(C)C(=O)C(C)C2NC(=O)OC2(C)C(CCNC(=O)Oc2ccc(F)cc2)OC(=O)C(C)C(=O)C(C)C1OC1OC(C)CC(N(C)C)C1O (centres unmarked) yielded log10 MIC of -1.60

COC1(C)CC(C)C(=O)C(C)C2NC(=O)OC2(C)C(CCNS(=O)(=O)c2cccc3ccccc23)OC(=O)C(C)C(=O)C(C)C1OC1OC(C)CC(N(C)C)C1O (centres unmarked) yielded log10 MIC of -2.00

COC1(C)CC(C)C(=O)C(C)C2NC(=O)OC2(C)C(CCNC(=O)Oc2cccc(-c3ccccc3)c2)OC(=O)C(C)C(=O)C(C)C1OC1OC(C)CC(N(C)C)C1O (centres unmarked) yielded log10 MIC of -1.60

COC1(C)CC(C)C(=O)C(C)C2NC(=O)OC2(C)C(CCNC(=O)Oc2cccc3ccccc23)OC(=O)C(C)C(=O)C(C)C1OC1OC(C)CC(N(C)C)C1O (centres unmarked) yielded log10 MIC of -1.01

COC1(C)CC(C)C(=O)C(C)C2NC(=O)OC2(C)C(CCN(Cc2cccc(-c3ccco3)c2)Cc2cccc(-c3ccco3)c2)OC(=O)C(C)C(=O)C(C)C1OC1OC(C)CC(N(C)C)C1O (centres unmarked) yielded log10 MIC of 0.80

COC1(C)CC(C)C(=O)C(C)C2NC(=O)OC2(C)C(CCNC(=O)Oc2ccc(-c3ccccc3)cc2)OC(=O)C(C)C(=O)C(C)C1OC1OC(C)CC(N(C)C)C1O (centres unmarked) yielded log10 MIC of -1.60

COC1(C)CC(C)C(=O)C(C)C2NC(=O)OC2(C)C(CCNC(=O)Oc2cccc(-c3cccnc3)c2)OC(=O)C(C)C(=O)C(C)C1OC1OC(C)CC(N(C)C)C1O (centres unmarked) yielded log10 MIC of -1.60

CCN(C)CCC1OC(=O)C(C)C(=O)C(C)C(OC2OC(C)CC(N(C)C)C2O)C(C)(OC)CC(C)C(=O)C(C)C2NC(=O)OC12C (centres unmarked) yielded log10 MIC of 0.80

COC(=O)NCCC1OC(=O)C(C)C(=O)C(C)C(OC2OC(C)CC(N(C)C)C2O)C(C)(OC)CC(C)C(=O)C(C)C2NC(=O)OC12C (centres unmarked) yielded log10 MIC of -1.01
